Reference for the values: patent US20260258035A1

Molecular target: UniProtKB Q86W56
Test: Biochemical assay (PARG, TFMU-ADPr substrate)
Details: PARG, TFMU-ADPr substrate
Decision: IC50 beneath 4 nM gives condition met; IC50 meeting or exceeding 4 nM gives condition not met.

| COMPOUND | CLASS NAME |
| --- | --- |
| C[C@H]1CN(c2cc(S(=O)(=O)NC3(CF)COC3)cn3c(-c4nnc(C(F)F)s4)ncc23)C[C@H](C)N1 | condition met |
| CC1(O)CCN(c2cc(S(=O)(=O)NC3(C)CC3)cn3c(-c4nnc(C(F)F)s4)nnc23)CC1 | condition not met |
| C#CC1(NS(=O)(=O)c2cc(N3CCN(C(=O)C(C)C)CC3)c3nnc(-c4nnc(C(F)F)s4)n3c2)CC1 | condition met |
| CC1(NS(=O)(=O)c2cc(N3CCN(C(=O)C4NCCS4)CC3)c3cnc(-c4nnc(C(F)(F)F)s4)n3c2)CC1 (stereo not drawn) | condition not met |

Confirm or reject: IC50 of `CC1(NS(=O)(=O)c2cc(N3CCN(C(=O)C4CC4)CC3)c3cnc(-c4nnc(C(F)(F)F)s4)n3c2)COC1` lies strictly below 4 nM condition not met

* * *

Target: PARG (Homo sapiens, UniProt Q86W56)
Sequence (Q86W56 whole entry): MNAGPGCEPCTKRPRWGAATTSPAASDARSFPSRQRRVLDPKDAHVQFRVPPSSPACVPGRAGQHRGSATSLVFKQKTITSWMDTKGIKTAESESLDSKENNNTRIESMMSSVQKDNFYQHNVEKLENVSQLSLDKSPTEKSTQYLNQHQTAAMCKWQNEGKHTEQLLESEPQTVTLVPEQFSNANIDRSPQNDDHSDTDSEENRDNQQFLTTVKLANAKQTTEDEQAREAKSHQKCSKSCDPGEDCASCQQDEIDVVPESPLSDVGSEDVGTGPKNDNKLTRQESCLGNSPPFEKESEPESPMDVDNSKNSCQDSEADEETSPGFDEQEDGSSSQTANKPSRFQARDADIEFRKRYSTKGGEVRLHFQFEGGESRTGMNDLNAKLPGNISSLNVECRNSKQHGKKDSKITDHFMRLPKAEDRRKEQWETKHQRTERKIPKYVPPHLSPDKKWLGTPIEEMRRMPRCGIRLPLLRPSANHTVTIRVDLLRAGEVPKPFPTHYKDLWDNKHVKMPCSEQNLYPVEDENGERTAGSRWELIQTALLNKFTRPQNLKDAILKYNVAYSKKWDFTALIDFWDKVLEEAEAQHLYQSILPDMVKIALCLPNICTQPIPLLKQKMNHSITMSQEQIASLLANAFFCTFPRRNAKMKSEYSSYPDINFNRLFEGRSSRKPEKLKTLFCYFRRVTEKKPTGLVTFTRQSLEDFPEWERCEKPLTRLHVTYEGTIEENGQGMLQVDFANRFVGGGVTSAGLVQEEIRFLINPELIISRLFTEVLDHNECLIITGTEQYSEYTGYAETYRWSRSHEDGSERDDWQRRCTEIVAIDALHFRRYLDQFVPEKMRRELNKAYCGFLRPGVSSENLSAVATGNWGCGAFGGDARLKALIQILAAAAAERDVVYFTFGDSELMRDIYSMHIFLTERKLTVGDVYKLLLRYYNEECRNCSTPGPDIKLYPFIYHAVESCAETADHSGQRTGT
Experiment: Biochemical assay (PARG, TFMU-ADPr substrate)
Details: PARG, TFMU-ADPr substrate
Some molecules, each annotated with its measured IC50.
Express it in nM; write the number only.

Known results for molecules:
| MOLECULE | IC50, nM |
| --- | --- |
| N#CC1(NS(=O)(=O)c2cc(N3CCN(C(=O)C(O)C(F)(F)F)CC3)c3cnc(-c4nnc(C(F)(F)F)s4)n3c2)CC1 (centres unmarked) | 8.32 |
| CC(C)OC(=O)N1CCN(c2cc(S(=O)(=O)NC3(C#N)CC3)cn3c(-c4nnc(C(F)(F)F)s4)ncc23)CC1 | 13.2 |
| CN(C)CCN(C)C(=O)N1CCN(c2cc(S(=O)(=O)NC3(C)COC3)cn3c(-c4nnc(C(F)F)s4)nc(Cl)c23)CC1 | 0.71 |
| Cc1nc(-c2nnc(C(F)(F)F)s2)n2cc(S(=O)(=O)NC3(C)CC3)cc(N3CCN(C(=O)[C@H]4CCN4C)CC3)c12 | 0.71 |

What does the data say about its IC50? Entry: O=S(=O)(NC1(CF)CC1)c1cc(N2CCC(O)C2)c2cnc(-c3nnc(C(F)F)s3)n2c1 (centres unmarked) 6.31

Next molecule up: `CCC(=O)C1CCN(c2cc(S(=O)(=O)NC3(C#N)CC3)cn3c(-c4nnc(C(F)(F)F)s4)ncc23)CC1` 550

Check `Cc1cnc(-c2cnn3c(N4CCN(C(=O)C(C)C)CC4)cc(S(=O)(=O)NC4(C#N)CC4)cc23)s1` too. 94.6

Follow-up entry: `COC1(C(=O)N2CCN(c3cc(S(=O)(=O)NC4(C#N)CC4)cn4c(-c5nnc(C(F)F)s5)ncc34)CC2)CC1` 0.83

Subsequent entry: `Cc1ncnn1CC(=O)N1CCN(c2cc(S(=O)(=O)NC3(C)CC3)cn3c(-c4nnc(C(F)(F)F)s4)ncc23)CC1` 6.55

Then what about the molecule `CC1(C(=O)N2CCN(c3cc(S(=O)(=O)NC4(C#N)CC4)cn4c(-c5nnc(C(F)F)s5)ncc34)CC2)CC1` ? 13.8

Also check [2H]c1nc(-c2nnc(C(F)F)s2)n2cc(S(=O)(=O)NC3(C)COC3)cc(N3CCNC(COC)C3)c12 (centres unmarked) 15.8

Same question for `CC(C)C(=O)N1CCN(c2cc(S(=O)(=O)NC3(CF)COC3)cn3c(-c4nnc(C(F)F)s4)ncc23)CC1` please. 0.19

Same for `O=C(C1CCN(c2cc(S(=O)(=O)NC3CC3)cn3c(-c4nnc(C(F)(F)F)s4)ncc23)CC1)N1CCC1` 100

Input `N#CC1(NS(=O)(=O)c2cc(N3CCN(C(=O)[C@@H]4CCCN4)CC3)c3cnc(-c4nnc(C(F)(F)F)s4)n3c2)CC1` 91.2

* * *

Assay: Solubility assay (FaSSGF / FaSSIF)
Assay type: physicochemical
Conditions: fassgf or other biorelevant, kinetic from dmso stock; FaSSGF solution pH 1.6, 100 μM from DMSO stock, 2 h at 25° C.; read-out: FaSSGF solubility
Values of solubility at 2 h greater than or equal to 20 µM map to 1; values below map to 0.

Confirm if solubility at 2 h reported for the compound CC1(C(=O)N2CCN(c3cc(S(=O)(=O)NC4(C#N)CC4)cn4c(-c5nnc(C(F)(F)F)s5)ncc34)CC2)CCCO1 (stereo not drawn) is 20 µM or above. 1

Okay, and `CC(C)C(=O)N1CCN(c2cc(S(=O)(=O)NC3(C#N)CC3)cn3c(-c4nnc(C(F)F)s4)ncc23)CC1` ? 0

And `CC(C)C(=O)N1CCN(c2cc(S(=O)(=O)NC3(CF)COC3)cn3c(-c4nnc(C(F)F)s4)ncc23)CC1` ? 0

Now consider N#CC1(NS(=O)(=O)c2cc(N3CCN(C(=O)C4CCO4)CC3)c3cnc(-c4nnc(C(F)(F)F)s4)n3c2)CC1 (stereo not drawn) and answer again. 1

Please do the same for `CC1(O)CCN(c2cc(S(=O)(=O)NC3(CF)CC3)cn3c(-c4nnc(C(F)F)s4)nnc23)CC1` as well. 0

* * *

Assay: Mouse PK assay
Assay type: in vivo
Details: mouse; CD1 mice, oral administration, 30 mg/kg, plasma; read-out: Mean residence time
MEASURED PARAMETER: MRT (h)
Just the number in h, nothing appended.

Given the compound CC(C)C(=O)N1CCN(c2cc(S(=O)(=O)NC3(C#N)CC3)cn3c(-c4nnc(C(F)F)s4)ncc23)CC1 [Example 32] , what is its reported MRT? 1.92

Another compound to check: CC(C)C(=O)N1CCN(c2cc(S(=O)(=O)NC3(C#N)CC3)cn3c(-c4nnc(C(F)(F)F)s4)ncc23)CC1 [Example 167] 4.81

* * *

Target: PXR (Homo sapiens)
Construct: host or cells: DPX2 (HepG2)
Sequence (O75469 whole entry): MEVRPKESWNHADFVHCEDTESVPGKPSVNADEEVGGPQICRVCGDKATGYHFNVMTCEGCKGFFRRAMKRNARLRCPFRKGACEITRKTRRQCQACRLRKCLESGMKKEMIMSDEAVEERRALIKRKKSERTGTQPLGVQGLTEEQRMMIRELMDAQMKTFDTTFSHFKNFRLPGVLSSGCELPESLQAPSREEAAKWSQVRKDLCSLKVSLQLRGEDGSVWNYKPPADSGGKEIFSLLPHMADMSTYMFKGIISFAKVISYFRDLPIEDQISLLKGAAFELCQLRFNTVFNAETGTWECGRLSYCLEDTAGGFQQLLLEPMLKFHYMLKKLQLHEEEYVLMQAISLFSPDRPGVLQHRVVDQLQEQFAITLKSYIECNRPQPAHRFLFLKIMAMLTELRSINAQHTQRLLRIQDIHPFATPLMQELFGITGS
Assay: PXR assay (DPX2 luciferase reporter cells)
Type: cell-based
Details: 24 h, positive control rifampicin
MEASURED PARAMETER: PXR Activation @30 uM (% Ctrl)
# unit: % Ctrl | format: bare number

Example results:
| COMPOUND | TARGET OR TEST SYSTEM | MEASURE UNIT | PXR Activation @30 uM (% Ctrl) |
| --- | --- | --- | --- |
| N#CC1(NS(=O)(=O)c2cc(N3CCN(C(=O)C4CCO4)CC3)c3cnc(-c4nnc(C(F)(F)F)s4)n3c2)CC1 (stereo not drawn) | PXR (Homo sapiens) | % Ctrl | 7 |
| N#CC1(NS(=O)(=O)c2cc(N3CCN(C(=O)C4CNC4)CC3)c3cnc(-c4nnc(C(F)(F)F)s4)n3c2)CC1 | PXR (Homo sapiens) | % Ctrl | 11 |

Now consider a different compound.
Which PXR Activation @30 uM (% Ctrl) reading was recorded for the compound `C[C@H]1CN(c2cc(S(=O)(=O)NC3(C)COC3)cn3c(-c4nnc(C(F)F)s4)ncc23)C[C@H](C)N1` ? 22

* * *

Target: PARG (Homo sapiens, UniProt Q86W56)
Experiment: Biochemical assay (PARG, TFMU-ADPr substrate)
Details: PARG, TFMU-ADPr substrate
MEASURED PARAMETER: IC50 (nM)
Hi! Could you send only the number? It should be in nM, unit omitted.

Worked examples, 3 compounds total:
| COMPOUND | MEASURED PARAMETER | MEASURE UNIT | NUMBER |
| --- | --- | --- | --- |
| N#CC1(NS(=O)(=O)c2cc(N3CCC(CO)CC3)c3cnc(-c4nnc(C(F)F)s4)n3c2)CC1 | IC50 | nM | 2.89 |
| CC1(NS(=O)(=O)c2cc(N3CCN(C(=O)c4c[nH]cn4)CC3)c3cnc(-c4nnc(C(F)F)s4)n3c2)CC1 | IC50 | nM | 2.15 |
| N#CC1(NS(=O)(=O)c2cc(N3CCN(C(=O)C4(F)CNC4)CC3)c3cnc(-c4nnc(C(F)(F)F)s4)n3c2)CC1 | IC50 | nM | 40.7 |

I am curious: what IC50 value has been reported for `N#CC1(NS(=O)(=O)c2cc(N3CCN(c4ccccn4)CC3)c3cnc(-c4nnc(C(F)(F)F)s4)n3c2)CC1` ? 75.9

* * *

Target: PARG (Homo sapiens)
Experiment: Biochemical assay (PARG, TFMU-ADPr substrate)
Conditions: PARG, TFMU-ADPr substrate
MEASURED PARAMETER: IC50 (nM)
Use nM as the unit, but write only the number.

Some molecules with known IC50 results, for comparison:
| MOLECULE | NUMBER |
| --- | --- |
| N#CC1(NS(=O)(=O)c2cc(N3CC[C@H](O)C3)c3cnc(-c4nnc(C(F)(F)F)s4)n3c2)CC1 | 380 |
| CC(C)OCC1CN(c2cc(S(=O)(=O)NC3(C)COC3)cn3c(-c4nnc(C(F)F)s4)ncc23)CCN1 (centres unmarked) | 18.2 |
| N#CC1(NS(=O)(=O)c2ccc3c(C4=CCC5(CNC5)C4)nc(-c4nnc(C(F)F)s4)n3c2)CC1 | 5.17 |

Name the recorded IC50 for `N#CC1(NS(=O)(=O)c2cc(N3CCC(F)(CO)CC3)c3cnc(-c4nnc(C(F)F)s4)n3c2)CC1` . 34.7

Same for `CN1CC(C(=O)N2CCN(c3cc(S(=O)(=O)NC4(C)CC4)cn4c(-c5nnc(C(F)(F)F)s5)ncc34)CC2)C1` 3.83
